assay: Therapeutic index was determined from the ratio of MND to the ED50 Cmax.(rat adjuvant arthritis)
Result Type: Therapeutic index

Molecule: CC[C@@H]1/C=C(\C)C[C@H](C)C[C@H](OC)[C@H]2O[C@@](O)(C(=O)C(=O)N3CCCC[C@H]3C(=O)O[C@H](/C(C)=C/[C@@H]3CC[C@@H](OC4OC(C)C(OC(C)=O)C(OC(C)=O)C4OC(C)=O)[C@H](OC)C3)[C@H](C)[C@@H](O)CC1=O)[C@H](C)C[C@@H]2OC (some centres not stated)
Therapeutic index: > 10

// below: Therapeutic index requested for another molecule
stdin: Fill in the blank: the reported Therapeutic index of C=CC[C@@H]1/C=C(\C)C[C@H](C)C[C@H](OC)[C@H]2O[C@@](O)(C(=O)C(=O)N3CCCC[C@H]3C(=O)O[C@H](/C(C)=C/[C@@H]3CC[C@@H](O)[C@H](OC)C3)[C@H](C)[C@@H](O)CC1=O)[C@H](C)C[C@@H]2OC [TACROLIMUS ANHYDROUS] is ____.
stdout: 2

Reference for the values: ChEMBL document CHEMBL1128291
